System: HCT-116
Procedure Text: cells
Set-up: species or system panel of human cancer cell lines; Eurofins OncoPanel proliferation; nuclei count by high-content fluorescence imaging, 10-point dose response
Test Settings: Homo sapiens, HCT-116, 72 h; cell count, 50% of maximum possible response, 3 days
Property Measured: pIC50
// returns pIC50 (minus log10 of molar concentration), number only

query: Item `C[C@@H]1CC(=O)NN=C1c1ccc(NN=C(C#N)C#N)cc1` has what recorded pIC50?
result: 5.08

---

Test system: HLE
Procedure Text: cells
Design: species or system panel of human cancer cell lines; Eurofins OncoPanel proliferation; nuclei count by high-content fluorescence imaging, 10-point dose response
Test Settings: Homo sapiens, HLE, 72 h; cell count, curve inflection point, 3 days
Property Measured: pEC50
Remember the convention: pEC50 equals -log10 of concentration in molar.

query: Given the entry `C[C@@H]1CC(=O)NN=C1c1ccc(NN=C(C#N)C#N)cc1` , report its measured pEC50.
result: 4.60

---

Test system: KHOS-240S
Procedure Text: cells
Parameters: species or system panel of human cancer cell lines; Eurofins OncoPanel proliferation; nuclei count by high-content fluorescence imaging, 10-point dose response
Test Settings: KHOS-240S, 72 h; cell count, curve inflection point, 3 days
Property Measured: pEC50
Scale: pEC50 equals -log10([C]), with [C] in mol/L.

query: Looking for the measured pEC50 of `C[C@@H]1CC(=O)NN=C1c1ccc(NN=C(C#N)C#N)cc1` , can you help?
result: 4.77

---

Test system: LS411N
Procedure Text: cells
Design: species or system panel of human cancer cell lines; Eurofins OncoPanel proliferation; nuclei count by high-content fluorescence imaging, 10-point dose response
Test Settings: Homo sapiens, LS-411N, 72 h; cell count, 50% of maximum possible response, 3 days
pIC50: −log10 of the molar value.
Property Measured: pIC50

query: Which value of pIC50 has been reported for C[C@@H]1CC(=O)NN=C1c1ccc(NN=C(C#N)C#N)cc1 [levosimendan] in the records?
result: < 4.00

---

Tested on: MHH-PREB-1
Procedure Text: cells
Parameters: species or system panel of human cancer cell lines; Eurofins OncoPanel proliferation; nuclei count by high-content fluorescence imaging, 10-point dose response
Test Settings: Homo sapiens, MHH-PREB-1, 72 h; cell count, 50% of maximum possible response, 3 days
Property Measured: pIC50
pIC50 (log units): -log10 of the concentration in mol/L.

query: Requested field: pIC50. Item: `C[C@@H]1CC(=O)NN=C1c1ccc(NN=C(C#N)C#N)cc1`
result: 5.12

---

Test system: SW620
Procedure Text: cells
Parameters: species or system panel of human cancer cell lines; Eurofins OncoPanel proliferation; nuclei count by high-content fluorescence imaging, 10-point dose response
Test Settings: Homo sapiens, SW-620, 72 h; cell count, 50% of maximum possible response, 3 days
Protocol: OncoPanel cancer cell proliferation assay was performed by Eurofins Panlabs, Inc. (Missouri, USA). Cancer cells were grown in RPMI 1640, 10% FBS, 2 mM L-alanyl-L-glutamine, 1 mM Na pyruvate, or a special medium. […] After a 3-day incubation period, cells were fixed and stained to allow fluorescence imaging of nuclei. […] Automated fluorescence microscopy was carried out using a Molecular Devices ImageXpress Micro XL high-content imager, and images were collected with a 4X objective. […]
Property Measured: pIC50
Quick note: pIC50 means taking -log10 of the concentration in moles per liter.

query: Give its pIC50 value. Item: C[C@@H]1CC(=O)NN=C1c1ccc(NN=C(C#N)C#N)cc1 [levosimendan]
result: 4.71

---

System: DOHH-2
Procedure Text: cells
Set-up: species or system panel of human cancer cell lines; Eurofins OncoPanel proliferation; nuclei count by high-content fluorescence imaging, 10-point dose response
Test Settings: Homo sapiens, DOHH-2, 72 h; cell count, curve inflection point, 3 days
Property Measured: EC50 (µM)
Record the value in µM, omitting the unit from your answer.

query: Report EC50 for `C[C@@H]1CC(=O)NN=C1c1ccc(NN=C(C#N)C#N)cc1` please.
result: 15.8

---

Tested on: T98G
Procedure Text: cells
Set-up: species or system panel of human cancer cell lines; Eurofins OncoPanel proliferation; nuclei count by high-content fluorescence imaging, 10-point dose response
Test Settings: Homo sapiens, T98G, 72 h; cell count, curve inflection point, 3 days
Procedure: OncoPanel cancer cell proliferation assay was performed by Eurofins Panlabs, Inc. (Missouri, USA). Cancer cells were grown in RPMI 1640, 10% FBS, 2 mM L-alanyl-L-glutamine, 1 mM Na pyruvate, or a special medium. […] After a 3-day incubation period, cells were fixed and stained to allow fluorescence imaging of nuclei. […] Automated fluorescence microscopy was carried out using a Molecular Devices ImageXpress Micro XL high-content imager, and images were collected with a 4X objective. […]
Property Measured: EC50

query: Checklist item: EC50 tested on T98G, entry `C[C@@H]1CC(=O)NN=C1c1ccc(NN=C(C#N)C#N)cc1` , value?
result: > 100 µM

---

Tested on: GA-10
Procedure Text: cells
Set-up: species or system panel of human cancer cell lines; Eurofins OncoPanel proliferation; nuclei count by high-content fluorescence imaging, 10-point dose response
Test Settings: Homo sapiens, GA-10, 72 h; cell count, 50% of maximum possible response, 3 days
Property Measured: pIC50
FYI, pIC50 means -log10 of a concentration in mol per litre.

query: Suppose we examine the molecule C[C@@H]1CC(=O)NN=C1c1ccc(NN=C(C#N)C#N)cc1 [levosimendan] ; what pIC50 value has been reported?
result: 4.99

---

Tested on: TUR
Procedure Text: cells
Parameters: species or system panel of human cancer cell lines; Eurofins OncoPanel proliferation; nuclei count by high-content fluorescence imaging, 10-point dose response
Test Settings: 72 h; cell count, curve inflection point, 3 days
Property Measured: pEC50
Quick note: pEC50 values are minus log10 of concentrations in mol/L.

query: Requested field: pEC50. Item: `C[C@@H]1CC(=O)NN=C1c1ccc(NN=C(C#N)C#N)cc1`
result: 5.19

---

Test system: HLE
Procedure Text: cells
Set-up: species or system panel of human cancer cell lines; Eurofins OncoPanel proliferation; nuclei count by high-content fluorescence imaging, 10-point dose response
Test Settings: Homo sapiens, HLE, 72 h; cell count, 50% of maximum possible response, 3 days
Property Measured: IC50
Please don't drop the unit; write it after the number.

query: Query (molecule): `C[C@@H]1CC(=O)NN=C1c1ccc(NN=C(C#N)C#N)cc1` ; field requested: IC50
result: 26.5 µM

---

Tested on: LS513
Procedure Text: cells
Design: species or system panel of human cancer cell lines; Eurofins OncoPanel proliferation; nuclei count by high-content fluorescence imaging, 10-point dose response
Test Settings: Homo sapiens, LS-513, 72 h; cell count, curve inflection point, 3 days
Experimental: OncoPanel cancer cell proliferation assay was performed by Eurofins Panlabs, Inc. (Missouri, USA). Cancer cells were grown in RPMI 1640, 10% FBS, 2 mM L-alanyl-L-glutamine, 1 mM Na pyruvate, or a special medium. […] After a 3-day incubation period, cells were fixed and stained to allow fluorescence imaging of nuclei. […] Automated fluorescence microscopy was carried out using a Molecular Devices ImageXpress Micro XL high-content imager, and images were collected with a 4X objective. […]
Property Measured: EC50 (µM)
Just the number please, in µM, no unit attached.

query: Returns the measured EC50 for the input molecule. Input: `C[C@@H]1CC(=O)NN=C1c1ccc(NN=C(C#N)C#N)cc1`
result: 17.2

---

Test system: SU-DHL-4
Procedure Text: cells
Design: species or system panel of human cancer cell lines; Eurofins OncoPanel proliferation; nuclei count by high-content fluorescence imaging, 10-point dose response
Test Settings: Homo sapiens, SU-DHL-4, 72 h; cell count, curve inflection point, 3 days
Property Measured: EC50
Respond with the figure and its unit, in that order.

query: Quick one: EC50 for `C[C@@H]1CC(=O)NN=C1c1ccc(NN=C(C#N)C#N)cc1` ?
result: 0.944 µM

---

Test system: NTERA-2 cl.D1
Procedure Text: cells
Parameters: species or system panel of human cancer cell lines; Eurofins OncoPanel proliferation; nuclei count by high-content fluorescence imaging, 10-point dose response
Test Settings: Homo sapiens, NTERA-2-cl-D1, 72 h; cell count, 50% of maximum possible response, 3 days
Property Measured: pIC50
Just the number, please; pIC50 means minus log10 of the concentration in mol/L.

query: Quick check: pIC50 of C[C@@H]1CC(=O)NN=C1c1ccc(NN=C(C#N)C#N)cc1 [levosimendan] ?
result: 4.93

---

Tested on: Hs 688(A).T
Procedure Text: cells
Parameters: species or system panel of human cancer cell lines; Eurofins OncoPanel proliferation; nuclei count by high-content fluorescence imaging, 10-point dose response
Test Settings: 72 h; cell count, curve inflection point, 3 days
Property Measured: pEC50
Scale: pEC50 equals -log10([C]), with [C] in mol/L.

query: Kindly state the measured pEC50 obtained for C[C@@H]1CC(=O)NN=C1c1ccc(NN=C(C#N)C#N)cc1 [levosimendan] with Hs 688(A).T.
result: 4.80

---

System: GA-10
Procedure Text: cells
Set-up: species or system panel of human cancer cell lines; Eurofins OncoPanel proliferation; nuclei count by high-content fluorescence imaging, 10-point dose response
Test Settings: Homo sapiens, GA-10, 72 h; cell count, curve inflection point, 3 days
Property Measured: pEC50
// pEC50 is dimensionless: -log10 of concentration (M)

query: Recorded pEC50 for `C[C@@H]1CC(=O)NN=C1c1ccc(NN=C(C#N)C#N)cc1` , please?
result: 4.99
